System: NF-κB
method.notes: NF-κB activation / DNA-binding activity by EMSA in stimulated HeLa cells
Assay type: cell-based, human
run.conditions: Homo sapiens; HeLa cells, TNFα; read-out: IC50 for inhibition of NF-κB DNA binding activity
measure.name: IC50 (nM)
Please respond with the number in nM and leave the unit unwritten.

Problem: // query IC50 value for entry CCCCC/C=C/C=C1/C(=O)C=C[C@@H]1C/C=C\CCCC(=O)O [15dPGJ2, 15-deoxy-Δ^12-14-PGJ2]
Result: 2250

###

Tested on: NF-κB
method.notes: NF-κB activation by EMSA in Jurkat cells stimulated with TNFα or TPA
Type: cell-based, human
run.conditions: Homo sapiens, read-out: half-maximal inhibitory (IC50) concentration towards NF-κB
measure.name: IC50 (µM)
State the answer as a number, implicitly in µM.

Problem: For CCCCC[C@H](O)/C=C/[C@H]1C=CC(=O)C1CCCCCCC(=O)O (stereo partly shown) [PGA1, prostaglandin A1] , what is its reported IC50?
Result: 12

###

Listing of recorded pIC50 by entry.
experimental.target: IKK (Homo sapiens, UniProt O14920+O15111)
Sequence (O14920 whole entry): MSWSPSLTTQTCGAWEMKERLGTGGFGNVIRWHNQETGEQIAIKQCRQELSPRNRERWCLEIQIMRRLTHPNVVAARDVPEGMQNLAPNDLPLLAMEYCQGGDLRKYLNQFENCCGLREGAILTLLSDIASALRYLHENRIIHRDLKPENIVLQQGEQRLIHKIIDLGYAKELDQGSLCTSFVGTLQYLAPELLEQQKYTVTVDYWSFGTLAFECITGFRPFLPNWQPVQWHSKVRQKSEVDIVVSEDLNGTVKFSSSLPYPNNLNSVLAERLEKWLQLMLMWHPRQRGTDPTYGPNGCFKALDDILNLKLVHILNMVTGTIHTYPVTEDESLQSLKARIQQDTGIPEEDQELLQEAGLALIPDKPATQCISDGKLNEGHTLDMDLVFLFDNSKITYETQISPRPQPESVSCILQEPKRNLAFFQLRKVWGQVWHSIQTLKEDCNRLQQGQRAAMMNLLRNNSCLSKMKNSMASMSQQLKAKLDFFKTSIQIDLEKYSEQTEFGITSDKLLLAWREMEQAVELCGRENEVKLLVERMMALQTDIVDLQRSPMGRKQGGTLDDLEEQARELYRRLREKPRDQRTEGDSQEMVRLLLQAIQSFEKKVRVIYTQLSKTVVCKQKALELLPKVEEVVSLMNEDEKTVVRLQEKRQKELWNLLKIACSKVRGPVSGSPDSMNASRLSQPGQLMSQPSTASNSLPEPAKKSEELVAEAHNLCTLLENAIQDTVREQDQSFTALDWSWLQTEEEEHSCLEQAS
Sequence (O15111 whole entry): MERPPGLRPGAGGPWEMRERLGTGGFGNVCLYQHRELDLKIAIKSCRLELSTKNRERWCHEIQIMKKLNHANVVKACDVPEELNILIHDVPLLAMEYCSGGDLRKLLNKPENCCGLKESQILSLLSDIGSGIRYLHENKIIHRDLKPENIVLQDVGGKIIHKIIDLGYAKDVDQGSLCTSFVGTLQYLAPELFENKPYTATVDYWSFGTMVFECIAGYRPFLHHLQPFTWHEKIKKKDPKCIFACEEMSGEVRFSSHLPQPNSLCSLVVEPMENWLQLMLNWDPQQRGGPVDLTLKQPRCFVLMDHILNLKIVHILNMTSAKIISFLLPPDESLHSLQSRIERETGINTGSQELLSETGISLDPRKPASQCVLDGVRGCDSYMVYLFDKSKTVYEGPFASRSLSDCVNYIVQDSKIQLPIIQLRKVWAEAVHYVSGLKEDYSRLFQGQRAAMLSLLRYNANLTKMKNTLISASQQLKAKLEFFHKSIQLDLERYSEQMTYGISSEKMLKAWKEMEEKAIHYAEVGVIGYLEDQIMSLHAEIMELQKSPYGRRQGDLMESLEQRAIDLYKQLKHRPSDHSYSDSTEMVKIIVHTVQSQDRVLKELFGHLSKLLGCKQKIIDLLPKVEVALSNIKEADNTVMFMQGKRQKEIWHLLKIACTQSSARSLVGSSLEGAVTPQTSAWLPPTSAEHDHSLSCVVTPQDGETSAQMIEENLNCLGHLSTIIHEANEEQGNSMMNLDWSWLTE
Sequence (Q9Y6K9 whole entry partner): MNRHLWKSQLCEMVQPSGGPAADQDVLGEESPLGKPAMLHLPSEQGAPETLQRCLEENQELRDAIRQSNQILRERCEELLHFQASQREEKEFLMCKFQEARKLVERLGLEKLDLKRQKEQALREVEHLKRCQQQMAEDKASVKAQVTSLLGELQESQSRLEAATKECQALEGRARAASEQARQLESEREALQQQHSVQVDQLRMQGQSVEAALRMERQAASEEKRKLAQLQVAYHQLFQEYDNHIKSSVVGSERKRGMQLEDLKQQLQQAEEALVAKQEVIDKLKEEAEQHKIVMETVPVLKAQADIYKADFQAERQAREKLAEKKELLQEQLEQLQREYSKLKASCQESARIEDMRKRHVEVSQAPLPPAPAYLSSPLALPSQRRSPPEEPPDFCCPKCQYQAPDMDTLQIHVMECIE
method.notes: In vitro kinase assay of IKK immunoprecipitated from TNFα-stimulated HeLa cells
Type: biochemical
Design: Endogenous IKK was immunoprecipitated from TNFα-stimulated HeLa cells; endogenous in cells; host or cells: HeLa
run.conditions: IKK immunoprecipitated from TNFα-stimulated HeLa cells
The read-out pIC50 is expressed as -log10 of concentration in moles per litre.

molecule | pIC50
CCCCC/C=C/C=C1/C(=O)C=C[C@@H]1C/C=C\CCCC(=O)O | 5.15

Field: next molecule
Problem: Observed pIC50 on IKK (Homo sapiens, UniProt O14920+O15111) for CCCCC[C@H](O)/C=C/[C@H]1C=CC(=O)C1CCCCCCC(=O)O (some centres unmarked) , please.
Result: 4.10
